System: Human Glioma cancer cell line U251
test_details: Cell Proliferation Assay by CCK-8 Reagent
Format: cell-based
measurement_parameters: U251 cells, 72 hours incubation, CCK-8, % viability vs vehicle control
endpoint_label: EC50 (µM)
Express your answer in µM, writing the number without its unit.

Some molecules with known EC50 results, for comparison:
[[record]]
molecule = "CNC(=O)OC1(CCN(C)CCCc2nc3ccccc3[nH]2)COc2cc(F)ccc2[C@@H]1C(C)C (single isomer, unassigned) [Example 20A]"
endpoint_label = "EC50"
recorded_value = 54

[[record]]
molecule = "CNC(=O)OC1(CCN(C)CCCc2nc3ccccc3[nH]2)COc2cc(F)ccc2[C@@H]1C(C)C (single isomer, unassigned) [Example 20B]"
endpoint_label = "EC50"
recorded_value = 12


Let's switch to this molecule now.
-- ask GET /values?readout=EC50&item= CNC(=O)OC1(CCN(C)CCCc2nc3c(C)ccc(C)c3[nH]2)COc2cc(F)ccc2[C@@H]1C(C)C (stereo partly drawn) [Example 21B]
-- reply 9
